The origin of these recorded values is ChEMBL document CHEMBL1151136.

# Experiment notes: Cytotoxicity against CHL cells
# Format: cell-based, Cricetulus griseus
# Test conditions: chinese hamster, read-out: LD50 (the source's name)
Measured attribute: CC50 (nM)

* C=C/C(C)=C/C[C@@]1(C)[C@@H](C)[C@H](OC(=O)CCCCCCCCC)[C@@H](OC(C)=O)[C@]23C(=C[C@H](O)C[C@@]21C)[C@@H](OC(C)=O)O[C@@H]3OC(C)=O | 770
